So I've got a bunch of compounds here, and I need their IC50 values.
Study System: UniProt P56817
Sequence (P56817 46-501): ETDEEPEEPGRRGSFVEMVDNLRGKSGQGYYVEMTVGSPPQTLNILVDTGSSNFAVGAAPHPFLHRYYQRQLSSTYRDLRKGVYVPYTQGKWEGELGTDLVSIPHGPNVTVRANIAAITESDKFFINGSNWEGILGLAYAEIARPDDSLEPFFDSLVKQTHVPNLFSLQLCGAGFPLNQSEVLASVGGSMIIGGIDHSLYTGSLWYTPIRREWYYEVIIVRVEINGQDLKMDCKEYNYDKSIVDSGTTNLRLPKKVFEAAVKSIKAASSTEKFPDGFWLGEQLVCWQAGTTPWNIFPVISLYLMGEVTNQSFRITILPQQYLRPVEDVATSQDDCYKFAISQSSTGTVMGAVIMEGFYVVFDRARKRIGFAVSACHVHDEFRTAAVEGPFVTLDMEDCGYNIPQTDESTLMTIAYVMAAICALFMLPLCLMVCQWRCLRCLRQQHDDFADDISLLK
Assay Details: Fluorescent kinetic assay, human BACE1 (FRET peptide substrate WABC-6);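 also: fluorescence monitored at excitation 320 nm and emission 420 nm over 30 min, with the substrate cleavage rate taken as the linear slope of the signal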
Assay type: biochemical
Measurement Parameters: fluorescent kinetic assay, 25 μM substrate WABC-6, pH 4.5, room temperature; read-out: IC50 (μM) BACE 1

Item NC(=NC(=O)Cn1c(-c2ccccc2)ccc1-c1ccc(C(=O)NC2CC2)cc1)NCCCO with UniProt P56817 - IC50?
0.11 to 1 µM

Which measured IC50 belongs to CC(O)CNC(N)=NC(=O)Cn1c(-c2ccccc2)ccc1C12CC3CC(CC(C3)C1)C2 (stereo not shown) [Example 405] , tested on UniProt P56817?
0.11 to 1 µM

I'm curious: which IC50 was measured for CCCN/C(N)=N\C(=O)Cn1c(-c2ccccc2)ccc1C12CC3CC(CC(C3)C1)C2 tested on UniProt P56817?
0.11 to 1 µM

Look up IC50 with UniProt P56817 for this compound: N#CCCc1ccc(-c2ccc(-c3ccccc3)n2CC(=O)NC(=N)N)cc1
1.1 to 5 µM

API: value(readout=IC50, system=UniProt P56817) for record N#CCCN/C(N)=N\C(=O)Cn1c(-c2ccccc2)ccc1C12CC3CC(CC(C3)C1)C2
0.11 to 1 µM

Notebook entry, UniProt P56817 assay: IC50 of COc1ccc(OC)c(-c2ccc(-c3ccc(Oc4ccccc4)cc3)n2CC(=O)N=C(N)N)c1 = ?
1.1 to 5 µM

IC50 of NC(=NC(=O)Cn1c(-c2ccc(Oc3ccccc3)cc2)ccc1-c1ccccc1Cl)NCCCO on UniProt P56817?
0.11 to 1 µM

Origin of values: patent US7488832B2
